Target Of Assay: rHuPH20 (Homo sapiens, UniProt P38567)
Construct: made in house; host or cells: CHO cells (DG44 CHO, HZ24 plasmid, clone 2B2)
Sequence (P38567 36-482): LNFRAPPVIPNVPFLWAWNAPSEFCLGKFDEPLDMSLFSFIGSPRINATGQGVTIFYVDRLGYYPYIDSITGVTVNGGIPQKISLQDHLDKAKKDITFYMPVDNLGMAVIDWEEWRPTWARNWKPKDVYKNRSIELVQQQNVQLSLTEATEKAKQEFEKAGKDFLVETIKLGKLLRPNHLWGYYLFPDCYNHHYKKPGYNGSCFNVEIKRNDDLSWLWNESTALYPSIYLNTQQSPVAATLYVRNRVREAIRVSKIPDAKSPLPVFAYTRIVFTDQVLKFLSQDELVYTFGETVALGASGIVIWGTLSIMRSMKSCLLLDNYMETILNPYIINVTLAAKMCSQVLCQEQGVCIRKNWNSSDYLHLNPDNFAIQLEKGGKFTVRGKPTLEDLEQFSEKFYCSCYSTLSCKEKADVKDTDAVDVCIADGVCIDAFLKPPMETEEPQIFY
Experiment: Determination of hyaluronidase activity of rHuPH20, turbidimetric assay (Example 2, variant not specified)
Assay type: biochemical
Setup Conditions: 5 days, 25° C.; in U/mL
Counter-ions that a name gives are not always drawn.
Reported Property: rHuPH20 activity
No unit in the answer, only the number.

Example results:
Prompt: Lab request: please report rHuPH20 activity under test system rHuPH20 (Homo sapiens, UniProt P38567) for [H]/N=C(\N/C(=N/[H])NCCCCCCNC(=N)NC(=N)Nc1ccc(Cl)cc1)Nc1ccc(Cl)cc1 [Chlorhexidine dihydrochloride]
Completion: 8750

Prompt: Now consider `C[CH2][Hg][S]c1ccccc1C(=O)[O-].[Na+]` .
Completion: 8960

Prompt: Now consider `N[C@@H](Cc1ccccc1)C(=O)O` .
Completion: 11460

Prompt: Now consider N=C(NCCCCCCNC(=N)NC(=N)Nc1ccc(Cl)cc1)NC(=N)Nc1ccc(Cl)cc1.O=C(O)[C@H](O)[C@@H](O)[C@H](O)[C@H](O)CO.O=C(O)[C@H](O)[C@@H](O)[C@H](O)[C@H](O)CO [Chlorhexidine digluconate] .
Completion: 12310

Then this compound:
Prompt: Lab request: please report rHuPH20 activity under test system rHuPH20 (Homo sapiens, UniProt P38567) for `OCCCCCl`
Completion: 1440
